# zone of inhibition at 200 µg/disc values compiled below
Tested on: Bacillus subtilis
Assay: Antibacterial activity against Bacillus subtilis NCIM 2063 at 200 ug/disk after 24 hrs by agar disk diffusion method
Type: functional
Details: NCIM 2063, 24 h, read-out: IZ
// note: answer is a bare numeric in mm

As a guide, the following entries are already answered.
// query Entry under review: CN1C(=N)C(C(CS(=O)(=O)c2ccc(Cl)cc2)S(=O)(=O)c2ccc(Cl)cc2)C(=N)N(C)C1=O (centres undefined) . Reported zone of inhibition at 200 µg/disc?
// result 17

// query Entry under review: NC1=NN=C(N)C1C(CC(=O)c1ccccc1)C(=O)c1ccccc1 (centres undefined) . Reported zone of inhibition at 200 µg/disc?
// result 31

// query Entry under review: CN1C(=N)C(C(CC(=O)c2ccc(Cl)cc2)C(=O)c2ccc(Cl)cc2)C(=N)N(C)C1=O (centres undefined) . Reported zone of inhibition at 200 µg/disc?
// result 13

Others:
// query Entry under review: NC1=NC(=S)N=C(N)C1C(CS(=O)(=O)c1ccccc1)S(=O)(=O)c1ccccc1 (centres undefined) . Reported zone of inhibition at 200 µg/disc?
// result 26

// query Entry under review: CN1C(=N)C(C(CS(=O)(=O)c2ccccc2)S(=O)(=O)c2ccccc2)C(=N)N(C)C1=O (centres undefined) . Reported zone of inhibition at 200 µg/disc?
// result 16

// query Entry under review: N=C1ON=C(N)C1C(CS(=O)(=O)c1ccc(Cl)cc1)S(=O)(=O)c1ccc(Cl)cc1 (centres undefined) . Reported zone of inhibition at 200 µg/disc?
// result 34

// query Entry under review: Cc1ccc(S(=O)(=O)CC(C2C(N)=NN=C2N)S(=O)(=O)c2ccc(C)cc2)cc1 (centres undefined) . Reported zone of inhibition at 200 µg/disc?
// result 28

// query Entry under review: Cc1ccc(C(=O)CC(C(=O)c2ccc(C)cc2)C2C(N)=NC(=O)N=C2N)cc1 (centres undefined) . Reported zone of inhibition at 200 µg/disc?
// result 12

// query Entry under review: NC1=NC(=O)N=C(N)C1C(CC(=O)c1ccc(Cl)cc1)C(=O)c1ccc(Cl)cc1 (centres undefined) . Reported zone of inhibition at 200 µg/disc?
// result 14
